B1: Tudor domain-containing protein 3, residues 554 to 611; numbered along this chain, Q9H7E2 (parent)
chain: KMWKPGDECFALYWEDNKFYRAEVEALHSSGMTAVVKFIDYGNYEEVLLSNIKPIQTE

# Variants of: B1
# experiment-description: abundance fitness (aPCA) (normalised: wild type 0, dead -1); higher = more abundant; growth selection in yeast, the domain comes from the species named
# assay-conditions: Homo sapiens
Assign abundance fitness to each entry below.
One number for each entry.

# example entries with known answers
- mutation-code: "M2I"
  measurement-type: "abundance fitness"
  value: -0.201
- mutation-code: "E25F"
  measurement-type: "abundance fitness"
  value: -0.041
- mutation-code: "G31S"
  measurement-type: "abundance fitness"
  value: -0.082
- mutation-code: "Y41F"
  measurement-type: "abundance fitness"
  value: 0.162
- mutation-code: "M32N"
  measurement-type: "abundance fitness"
  value: 0.003
- mutation-code: "S29V"
  measurement-type: "abundance fitness"
  value: 0.118

Hi team, please reply with abundance fitness for each item in this list.
1. V35S
2. H28T
3. F10P
4. W3E
5. Y41G
6. N51R
7. L48K
8. M2C

Data returned:
1: -0.032; 2: -0.065; 3: -0.923; 4: -0.866; 5: 0.07; 6: -0.485; 7: -0.1; 8: -0.286

Hi team, please reply with abundance fitness for each item in this list.
1. F10V
2. Y20E
3. P5W
4. K53P
5. V35P
6. S50C
7. M2T
8. C9A

Data returned:
1. -0.128
2. -0.516
3. -0.926
4. -0.809
5. -0.973
6. -0.08
7. -0.23
8. -0.765
